Test system: RT4 (Bladder Carcinoma)
Test: Bliss excess, mean over the matrix (fraction); higher = more synergy
Exercise: for every item that follows, state its recorded Bliss excess.
Numbers only.

compound	subjectOfTest	numericResult
Cc1c2c(nn1C)CSCc1cc(n(C)n1)CSc1cc(c3ccccc3c1)OCCCc1c(C(=O)O)n(C)c3c-2c(Cl)ccc13 [AZD5991] + Cn1cnc2c(F)c(Nc3ccc(Br)cc3Cl)c(C(=O)NOCCO)cc21 [Selumetinib] (first compound max 1 µM, 7x7, partner max 3 µM)	RT4 (Bladder Carcinoma)	0.0266
CC1(C)CCC(CN2CCN(c3ccc(C(=O)NS(=O)(=O)c4ccc(NCC5CCOCC5)c([N+](=O)[O-])c4)c(Oc4cnc5[nH]ccc5c4)c3)CC2)=C(c2ccc(Cl)cc2)C1 [Venetoclax] + COc1cc(Nc2ncc3c(n2)-c2ccc(Cl)cc2C(c2c(F)cccc2OC)=NC3)ccc1C(=O)O [Alisertib] (first compound max 1 µM, 7x7, partner max 10 µM)	RT4 (Bladder Carcinoma)	0.0354

Provide reported Bliss excess for each item, in the same order as listed.
1. CCN(CCO)CCCOc1ccc2c(Nc3cc(CC(=O)Nc4cccc(F)c4)[nH]n3)ncnc2c1 [AZD2811] + C[C@@H]1COCCN1C2=NC(=NC(=C2)C3(CC3)[S@](=N)(=O)C)C4=C5C=CNC5=NC=C4 [AZD6738] (first compound max 1 µM, 7x7, partner max 10 µM)
2. Cn1cnc2c(F)c(Nc3ccc(Br)cc3Cl)c(C(=O)NOCCO)cc21 [Selumetinib] + CCN(CCO)CCCOc1ccc2c(Nc3cc(CC(=O)Nc4cccc(F)c4)[nH]n3)ncnc2c1 [AZD2811] (first compound max 10 µM, 7x7, partner max 1 µM)
3. Cc1c2c(nn1C)CSCc1cc(n(C)n1)CSc1cc(c3ccccc3c1)OCCCc1c(C(=O)O)n(C)c3c-2c(Cl)ccc13 [AZD5991] + Cc1cc2ncnn2cc1Nc1ncc2c(n1)n(C1CCOCC1)c(=O)n2C [AZD7648] (first compound max 1 µM, 7x7, partner max 10 µM)
4. CN(CCO)CC[C@H](CSc1ccccc1)Nc1ccc(S(=O)(=O)NC(=O)c2ccc(N3CCC([C@@H](O)c4ccccc4-c4ccc(Cl)cc4)CC3)cc2)cc1S(=O)(=O)C(F)(F)F [AZD4320] + CN(C)CCCOc1ccc(-c2ccc3ncc4c(c3c2)n(C2CCOCC2)c(=O)n4C)cn1 [AZD0156] (first compound max 1 µM, 7x7, partner max 1 µM)
5. Cc1c2c(nn1C)CSCc1cc(n(C)n1)CSc1cc(c3ccccc3c1)OCCCc1c(C(=O)O)n(C)c3c-2c(Cl)ccc13 [AZD5991] + CN(C)CCCOc1ccc(-c2ccc3ncc4c(c3c2)n(C2CCOCC2)c(=O)n4C)cn1 [AZD0156] (first compound max 1 µM, 7x7, partner max 1 µM)
6. CN(C)CCCOc1ccc(-c2ccc3ncc4c(c3c2)n(C2CCOCC2)c(=O)n4C)cn1 [AZD0156] + C=CCn1c(=O)c2cnc(Nc3ccc(N4CCN(C)CC4)cc3)nc2n1-c1cccc(C(C)(C)O)n1 [AZD1775] (first compound max 1 µM, partner max 1 µM)
7. CN(CCO)CC[C@H](CSc1ccccc1)Nc1ccc(S(=O)(=O)NC(=O)c2ccc(N3CCC([C@@H](O)c4ccccc4-c4ccc(Cl)cc4)CC3)cc2)cc1S(=O)(=O)C(F)(F)F [AZD4320] + C[C@@H](Nc1cc(F)cc(F)c1)c1cc(C(=O)N(C)C)cc2c(=O)cc(N3CCOCC3)oc12 [AZD8186] (first compound max 1 µM, 7x7, partner max 3 µM)
8. Cc1cc2ncnn2cc1Nc1ncc2c(n1)n(C1CCOCC1)c(=O)n2C [AZD7648] + O=C(c1cc(Cc2n[nH]c(=O)c3ccccc23)ccc1F)N1CCN(C(=O)C2CC2)CC1 [Olaparib] (first compound max 10 µM, 7x7, partner max 10 µM)

result:
-0.0318
-0.0816
-0.0301
-0.0057
0.0149
-0.0136
0.032
0.0016

###

System: HTC-C3 (Thyroid Gland Carcinoma)
Assay: combination Emax (second highest fraction inhibited in the dose matrix, 72 h); higher = more inhibition; extreme values may be limits of the assay
metric: combination Emax
Answers are plain numbers.

Consider the following illustrative entries.
compound	subjectOfTest	numericResult
CCc1c2c(nc3ccc(O)cc13)-c1cc3c(c(=O)n1C2)COC(=O)[C@]3(O)CC [SN-38] + CN(C)CCCOc1ccc(-c2ccc3ncc4c(c3c2)n(C2CCOCC2)c(=O)n4C)cn1 [AZD0156] (first compound max 0.3 µM, 7x7, partner max 1 µM)	HTC-C3 (Thyroid Gland Carcinoma)	0.764
C[C@@H](c1ccc2nccn2c1)n1nnc2ncc(-c3cnn(C)c3)nc21 [Savolitinib] + Cc1c2c(nn1C)CSCc1cc(n(C)n1)CSc1cc(c3ccccc3c1)OCCCc1c(C(=O)O)n(C)c3c-2c(Cl)ccc13 [AZD5991] (first compound max 1 µM, 7x7, partner max 1 µM)	HTC-C3 (Thyroid Gland Carcinoma)	0.182

query: Quick one: combination Emax of CC1(C)CCC(CN2CCN(c3ccc(C(=O)NS(=O)(=O)c4ccc(NCC5CCOCC5)c([N+](=O)[O-])c4)c(Oc4cnc5[nH]ccc5c4)c3)CC2)=C(c2ccc(Cl)cc2)C1 [Venetoclax] + C[C@@H]1COCCN1C2=NC(=NC(=C2)C3(CC3)[S@](=N)(=O)C)C4=C5C=CNC5=NC=C4 [AZD6738] (first compound max 1 µM, 7x7, partner max 10 µM) ?
result: 0.674

###

Test system: LAMA-84 (Chronic Myelogenous Leukemia)
Test: Bliss excess, mean over the matrix (fraction); higher = more synergy
metric: Bliss excess

compound	metric	result
Cc1c2c(nn1C)CSCc1cc(n(C)n1)CSc1cc(c3ccccc3c1)OCCCc1c(C(=O)O)n(C)c3c-2c(Cl)ccc13 [AZD5991] + CN(C)CCCOc1ccc(-c2ccc3ncc4c(c3c2)n(C2CCOCC2)c(=O)n4C)cn1 [AZD0156] (first compound max 1 µM, 7x7, partner max 1 µM)	Bliss excess	-0.0051
CC1(C)CCC(CN2CCN(c3ccc(C(=O)NS(=O)(=O)c4ccc(NCC5CCOCC5)c([N+](=O)[O-])c4)c(Oc4cnc5[nH]ccc5c4)c3)CC2)=C(c2ccc(Cl)cc2)C1 [Venetoclax] + C[C@@H]1COCCN1C2=NC(=NC(=C2)C3(CC3)[S@](=N)(=O)C)C4=C5C=CNC5=NC=C4 [AZD6738] (first compound max 1 µM, 7x7, partner max 10 µM)	Bliss excess	-0.0263

Moving on to another compound below.
query: What value of measured Bliss excess is listed for CCN(CCO)CCCOc1ccc2c(Nc3cc(CC(=O)Nc4cccc(F)c4)[nH]n3)ncnc2c1 [AZD2811] + O=C(c1cc(Cc2n[nH]c(=O)c3ccccc23)ccc1F)N1CCN(C(=O)C2CC2)CC1 [Olaparib] (first compound max 1 µM, 7x7, partner max 10 µM) ?
result: 0.0269

###

Test system: SW684 (Other Solid Carcinomas)
Experiment: combination Emax (second highest fraction inhibited in the dose matrix, 72 h); higher = more inhibition; extreme values may be limits of the assay
Assignment: determine reported combination Emax for the given compounds.

compound	metric	result
CCc1c2c(nc3ccc(O)cc13)-c1cc3c(c(=O)n1C2)COC(=O)[C@]3(O)CC [SN-38] + CN(C)CCCOc1ccc(-c2ccc3ncc4c(c3c2)n(C2CCOCC2)c(=O)n4C)cn1 [AZD0156] (first compound max 0.3 µM, 7x7, partner max 1 µM)	combination Emax	0.462
C[C@@H](c1ccc2nccn2c1)n1nnc2ncc(-c3cnn(C)c3)nc21 [Savolitinib] + CC1(C)CCC(CN2CCN(c3ccc(C(=O)NS(=O)(=O)c4ccc(NCC5CCOCC5)c([N+](=O)[O-])c4)c(Oc4cnc5[nH]ccc5c4)c3)CC2)=C(c2ccc(Cl)cc2)C1 [Venetoclax] (first compound max 1 µM, 7x7, partner max 1 µM)	combination Emax	0.231
C[C@@H](Nc1cc(F)cc(F)c1)c1cc(C(=O)N(C)C)cc2c(=O)cc(N3CCOCC3)oc12 [AZD8186] + C1CN(CCC1(C(=O)N[C@@H](CCO)C2=CC=C(C=C2)Cl)N)C3=NC=NC4=C3C=CN4 [AZD5363] (first compound max 10 µM, 7x7, partner max 10 µM)	combination Emax	0.572

Lab note: next compound to report on.
query: # lookup: combination Emax of C[C@@H]1COCCN1c1cc(C2([S@](C)(=N)=O)CC2)nc(-c2ccnc3[nH]ccc23)n1 [AZD6738] + C1CC(C1)(C(=O)[O-])C(=O)[O-].N.N.[Pt+2] [Carboplatin] (first compound max 10 µM, 7x7, partner max 10 µM)
result: 0.342

###

For each entry below, report its combination Emax value.
Test system: COLO-684 (Endometrial Carcinoma)
Assay: combination Emax (second highest fraction inhibited in the dose matrix, 72 h); higher = more inhibition; extreme values may be limits of the assay
Numbers only.

compound	combination Emax
N#Cc1cnc(Nc2cc(NC[C@H]3CNCCO3)c(C(F)(F)F)cn2)cn1 [SRA737] + C=CCn1c(=O)c2cnc(Nc3ccc(N4CCN(C)CC4)cc3)nc2n1-c1cccc(C(C)(C)O)n1 [AZD1775] (first compound max 10 µM, partner max 1 µM)	0.864

Please give combination Emax, item by item, for the list that follows.
1. CCN(CCO)CCCOc1ccc2c(Nc3cc(CC(=O)Nc4cccc(F)c4)[nH]n3)ncnc2c1 [AZD2811] + C=CCn1c(=O)c2cnc(Nc3ccc(N4CCN(C)CC4)cc3)nc2n1-c1cccc(C(C)(C)O)n1 [AZD1775] (first compound max 1 µM, partner max 1 µM)
2. Cc1c2c(nn1C)CSCc1cc(n(C)n1)CSc1cc(c3ccccc3c1)OCCCc1c(C(=O)O)n(C)c3c-2c(Cl)ccc13 [AZD5991] + C[C@@H](Nc1cc(F)cc(F)c1)c1cc(C(=O)N(C)C)cc2c(=O)cc(N3CCOCC3)oc12 [AZD8186] (first compound max 1 µM, 7x7, partner max 3 µM)
3. NC1(C(=O)N[C@@H](CCO)c2ccc(Cl)cc2)CCN(c2ncnc3[nH]ccc23)CC1 [Capivasertib] + CCN(CCO)CCCOc1ccc2c(Nc3cc(CC(=O)Nc4cccc(F)c4)[nH]n3)ncnc2c1 [AZD2811] (first compound max 10 µM, 7x7, partner max 1 µM)

result:
[0.649, 0.42, 0.659]
